tested on: NCI-H460 lung; assay: NCI tumour cell line growth inhibition, 48 h
Can you tell me TGI for the items I'm about to list?

Past entries and their recorded results:
- CCN(CC)C1CCC(C2c3cc4c(cc3OC(N3CCOCC3)C2C)OCO4)CC1 (stereo unspecified): > 100 µM
- O=C1CC2(CCC3=C(O2)c2ccccc2NC(=O)C3)C(=O)c2ccccc2N1 (stereo unspecified): > 100 µM
- O=C(O)CCc1nc2ccccc2[nH]1: > 100 µM
- Cc1nn2c(nc1=O)sc1ccc3ccccc3c12: > 100 µM
- CC1=NC2c3c(-c4ccc(Cl)cc4)cn(-c4ccc(C)cc4)c3N=CN2N1 (stereo unspecified): > 100 µM

For each of the compounds below, state TGI.
1. COc1cc2c(cc1OCCCOS(C)(=O)=O)N=C[C@@H]1CCCN1C2=O
2. Cn1ncc2c(Nc3cccc(Cl)c3)nc(Nc3cccc(Cl)c3)nc21
3. Cc1c(Cl)nc(Cl)nc1Cl
4. N#Cc1c(N2CCOCC2)nc(=S)[nH]c1-c1ccccc1
5. O=c1c2ccccc2nc(/C=C(\O)c2ccncc2)n1-c1ccc(Cl)cc1
6. CCCCCCn1c(-c2ccc(C(=O)O/N=C(\N)c3ccc4ccccc4c3)cc2)nc(-c2ccccc2)c1-c1ccccc1
7. O=c1[nH]c(=O)c2cc3cc(C4CC(O)C(CO)O4)ccc3cc2[nH]1 (stereo unspecified)
8. N=C(N)SCc1c2ccccc2c(CSC(=N)N)c2ccccc12

Result:
> 100 µM
> 30.9 µM
20.1 µM
> 100 µM
> 100 µM
> 100 µM
> 100 µM
15.3 µM

Return reported TGI values for all items listed beneath this line.
1. CCC(O)C1Cc2c(C)cc3c(c2O1)C(=O)c1ccccc1C3=O (stereo unspecified)
2. [Cl][Hg][c]1ccc(Cl)s1
3. Nc1nc(N)c(-c2ccccc2)c(C(=O)Nc2ccccc2)n1

Result:
["> 100 µM", "35.7 µM", "> 100 µM"]

====

system: M14 melanoma; test: NCI tumour cell line growth inhibition, 48 h
READOUT TYPE: TGI (µM)
Numbers only, in µM.

- COc1cc(C(=O)N2CCN(c3ccccc3)CC2)c2ccccc2n1: 0.805
- COc1ccc(-c2cc(-c3ccc(O)cc3O)c(C#N)c(=O)[nH]2)cc1: 35.4
- S=C(NCCNC(=S)[S][Sn]([c]1ccccc1)([c]1ccccc1)[c]1ccccc1)[S][Sn]([c]1ccccc1)([c]1ccccc1)[c]1ccccc1: 0.0976

Then there is this molecule:
Task: Read off the recorded TGI for `CCCc1cc(=O)n2c(C(=O)Nc3cccc(C(=O)OCC)c3)c(C(=O)Nc3ccc(F)cc3)sc2n1`
Result: 86

====

test system: SK-MEL-5 melanoma; assay: NCI tumour cell line growth inhibition, 48 h; in the data active = GI50 below about 0.43 µM; inactive = the rest
Where a SMILES comes first, the peptide text is derived from it. Bridges are numbered along the chain shown (N, C = ends). [ ]: non-standard residue; d: D form. The star is where a group is joined. ξ: configuration not given here. ξDab(CH2SO3H) = NC(CCNCS(=O)(=O)O)C(=O)O; Heptanoyl(6-Me) = CC(C)CCCCC(=O)*; Dab = NCC[CH](N)C(=O)O
The reply should name one outcome from class 1 (active), class 0 (inactive)

* CC(=O)Nc1c(I)c(NC(C)=O)c(I)c(C(=O)O)c1I | class 0
* O=C(Nc1ccc(-n2cc(-c3ccncc3)c(-c3ccc(O)c(Cl)c3)n2)cc1)Nc1ccc(Cl)c(C(F)(F)F)c1 | class 0
* S=C(NCCNC(=S)[S][Sn]([c]1ccccc1)([c]1ccccc1)[c]1ccccc1)[S][Sn]([c]1ccccc1)([c]1ccccc1)[c]1ccccc1 | class 1
* CCC(C)C1NC(=O)C(CCNCS(=O)(=O)O)NC(=O)C(NC(=O)C(CCNCS(=O)(=O)O)NC(=O)C(NC(=O)C(CCNCS(=O)(=O)O)NC(=O)CCCCC(C)C)C(C)O)CCNC(=O)C(C(C)O)NC(=O)C(CCNCS(=O)(=O)O)NC(=O)C(CCNCS(=O)(=O)O)NC(=O)C(C(C)CC)NC1=O (stereo not drawn) ({Heptanoyl(6-Me)}-[ξDab(CH2SO3H)]T[ξDab(CH2SO3H)][Dab][ξDab(CH2SO3H)]II[ξDab(CH2SO3H)][ξDab(CH2SO3H)]T; lactam 4-C; configuration not given here) | class 0
* O=C(/C(=C/c1ccc([N+](=O)[O-])cc1)SCc1ccc(Cl)cc1)c1ccc(F)cc1 | class 0
* COc1ccc2c(c1)CC[C@@H]1[C@@H]2CC[C@]2(C)c3c(cc(C(=O)O)c4sccc34)C[C@@H]12 | class 0
* CC1=CCCC2C1(C)CCC(C)C2(C)Cc1cc(O)ccc1O (stereo not drawn) | class 0

Moving on to the next molecule.
Task: # lookup: test call for `COc1cc(C(=O)N2CCN(c3ccccc3)CC2)c2ccccc2n1`
Result: class 1

Where do the numbers come from? From PubChem BioAssay (NCI).
